metric.name: Ki
Field: value (include unit after the number)

Return Ki measured with Mu-type opioid receptor (Rattus norvegicus) given this compound: Cc1cc(O)cc(C)c1C[C@H](N)C(=O)N[C@@H]1CCNc2ccc(CCc3ccccc3)cc21
Sequence (P33535 whole entry): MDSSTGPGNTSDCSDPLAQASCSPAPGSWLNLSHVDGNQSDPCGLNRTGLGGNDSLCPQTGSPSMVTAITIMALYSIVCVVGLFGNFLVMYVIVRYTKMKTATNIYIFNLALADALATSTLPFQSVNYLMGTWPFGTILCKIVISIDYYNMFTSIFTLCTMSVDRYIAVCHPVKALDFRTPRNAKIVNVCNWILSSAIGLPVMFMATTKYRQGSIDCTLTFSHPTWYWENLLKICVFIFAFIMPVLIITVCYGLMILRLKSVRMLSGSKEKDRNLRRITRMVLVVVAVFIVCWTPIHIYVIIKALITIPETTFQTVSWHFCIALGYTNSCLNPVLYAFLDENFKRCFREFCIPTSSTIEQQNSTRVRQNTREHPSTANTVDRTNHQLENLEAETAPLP
0.24 nM

Return Ki measured with Mu-type opioid receptor (Rattus norvegicus) given this compound: Cc1cc(O)cc(C)c1C[C@H](N)C(=O)N[C@H]1CCNc2ccc(CCc3ccccc3)cc21
16 nM
